Molecular target: Amine oxidase [flavin-containing] B (Homo sapiens, UniProt P27338)
Sequence (P27338 whole entry): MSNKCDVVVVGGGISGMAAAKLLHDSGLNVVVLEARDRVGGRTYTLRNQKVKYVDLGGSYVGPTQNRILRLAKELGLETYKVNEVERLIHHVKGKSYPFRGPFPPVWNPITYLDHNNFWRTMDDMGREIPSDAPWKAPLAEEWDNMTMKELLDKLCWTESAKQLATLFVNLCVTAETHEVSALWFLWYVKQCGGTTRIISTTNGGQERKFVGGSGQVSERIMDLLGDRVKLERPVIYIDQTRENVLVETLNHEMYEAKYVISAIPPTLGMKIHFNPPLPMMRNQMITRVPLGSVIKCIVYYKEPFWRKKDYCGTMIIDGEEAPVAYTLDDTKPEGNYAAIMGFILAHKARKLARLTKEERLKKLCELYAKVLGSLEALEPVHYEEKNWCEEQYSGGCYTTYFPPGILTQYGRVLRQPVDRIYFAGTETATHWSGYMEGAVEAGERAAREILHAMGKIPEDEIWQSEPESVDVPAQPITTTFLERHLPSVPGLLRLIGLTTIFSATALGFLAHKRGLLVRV
Assay: Inhibition of MAO-B (unknown origin)
measuredEndpoint: pIC50
Field pIC50 (float): negative decimal logarithm of the concentration in molar.

Missing value: pIC50, Amine oxidase [flavin-containing] B (Homo sapiens, UniProt P27338), entry O=C(NCCC1CCN(Cc2ccccc2)CC1)c1coc2cc(OCc3ccccc3)ccc2c1=O . Fill in? 6.57

---

Biological target: Amine oxidase [flavin-containing] B (Homo sapiens, UniProt P27338)
Experiment: Inhibition of recombinant MAO-B (unknown origin) at 20 uM preincubated for 30 mins followed substrate addition by Amplex Red reagent based fluorescence analysis relative to control
Recorded inhibition at 20 µM by entry
Number only, in %; omit the unit.

Recorded inhibition at 20 µM for C#CCOc1c(CN2CCOCC2)cc(-c2cc(=O)c3ccccc3o2)cc1OC , please? 15.1

Queued: C#CCCCOc1c(CN2CCOCC2)cc(-c2cc(=O)c3ccccc3o2)cc1OC 18.8

Again, but for C#CCCCOc1c(CN2CCN(Cc3ccccc3)CC2)cc(-c2cc(=O)c3ccccc3o2)cc1OC 22.8

Likewise for C#CCOc1c(CN2CCOCC2)cc(-c2cc(=O)c3ccccc3o2)cc1CN1CCOCC1 ? 36.5

What about this molecule? C#CCCCOc1c(CN2CCc3ccccc3C2)cc(-c2cc(=O)c3ccccc3o2)cc1OC 19.8

Also, C#CCOc1c(CN2CCOCC2)cc(-c2cc(=O)c3ccccc3o2)cc1OCC please. 8.37

---

Molecular target: Amyloid-beta precursor protein (Homo sapiens) (UniProt P05067)
Sequence (P05067 whole entry, the tested form may be a part): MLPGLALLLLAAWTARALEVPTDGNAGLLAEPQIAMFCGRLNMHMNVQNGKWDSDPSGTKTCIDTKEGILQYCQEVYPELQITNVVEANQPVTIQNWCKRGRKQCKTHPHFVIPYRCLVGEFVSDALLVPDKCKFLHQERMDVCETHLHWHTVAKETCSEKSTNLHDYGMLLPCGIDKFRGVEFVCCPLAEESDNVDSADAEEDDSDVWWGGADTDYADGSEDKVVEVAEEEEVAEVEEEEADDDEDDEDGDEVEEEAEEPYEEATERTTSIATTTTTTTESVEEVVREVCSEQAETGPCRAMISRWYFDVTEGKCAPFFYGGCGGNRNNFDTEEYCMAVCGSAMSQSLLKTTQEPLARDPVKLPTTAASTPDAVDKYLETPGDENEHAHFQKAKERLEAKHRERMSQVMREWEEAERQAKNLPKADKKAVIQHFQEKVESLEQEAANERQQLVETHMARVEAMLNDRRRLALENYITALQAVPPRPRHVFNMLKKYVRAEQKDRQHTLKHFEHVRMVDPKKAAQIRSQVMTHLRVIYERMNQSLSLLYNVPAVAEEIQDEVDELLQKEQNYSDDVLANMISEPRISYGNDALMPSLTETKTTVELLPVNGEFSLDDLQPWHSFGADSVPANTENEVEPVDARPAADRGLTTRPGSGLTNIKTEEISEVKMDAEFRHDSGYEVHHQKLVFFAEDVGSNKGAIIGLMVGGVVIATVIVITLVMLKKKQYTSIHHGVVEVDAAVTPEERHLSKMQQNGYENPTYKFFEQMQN
Experiment: Inhibition of self-induced amyloid beta (1 to 42 residues) (unknown origin) aggregation at 20 uM incubated at 24 hrs by fluorimetry-based thioflavin T assay
The entries below are paired with their reported inhibition.
State the answer as a number, implicitly in %.

Examples with answers:
[
  {
    "structure": "C#CCOc1c(CN2CCOCC2)cc(-c2cc(=O)c3ccccc3o2)cc1OC",
    "measuredEndpoint": "inhibition",
    "resultValue": 36.1
  },
  {
    "structure": "C#CCCOc1c(CN2CCOCC2)cc(-c2cc(=O)c3ccccc3o2)cc1OCC",
    "measuredEndpoint": "inhibition",
    "resultValue": 24.6
  },
  {
    "structure": "C#CCCCOc1c(CN2CCN(Cc3ccccc3)CC2)cc(-c2cc(=O)c3ccccc3o2)cc1OC",
    "measuredEndpoint": "inhibition",
    "resultValue": 22.9
  },
  {
    "structure": "C#CCCCOc1ccc(-c2cc(=O)c3ccccc3o2)cc1CN1CCCCC1",
    "measuredEndpoint": "inhibition",
    "resultValue": 22.1
  },
  {
    "structure": "C#CCOc1ccc(-c2cc(=O)c3ccccc3o2)cc1CN1CCOCC1",
    "measuredEndpoint": "inhibition",
    "resultValue": 9
  },
  {
    "structure": "C#CCOc1c(CN2CCOCC2)cc(-c2cc(=O)c3ccccc3o2)cc1CN1CCOCC1",
    "measuredEndpoint": "inhibition",
    "resultValue": 14.4
  }
]

Would you kindly share the measured inhibition for C#CCCCOc1c(CN2CCOCC2)cc(-c2cc(=O)c3ccccc3o2)cc1CN1CCOCC1 ? 23.9

And then C#CCOc1c(CN2CCCCC2)cc(-c2cc(=O)c3ccccc3o2)cc1OC , what is it? 22.4

C#CCCCOc1c(CN2CCCCC2)cc(-c2cc(=O)c3ccccc3o2)cc1CN1CCCCC1 , same question. 12
